Value source: the supplement of paper PMC8728848

- tested system: Fuc(a1-2)[Gal(a1-3)]Gal(b1-3)GlcNAc(b1-2)Man(a1-3)[Fuc(a1-2)[Gal(a1-3)]Gal(b1-3)GlcNAc(b1-2)Man(a1-6)]Man(b1-4)GlcNAc(b1-4)GlcNAc
- method: glycan array binding signal (z-score within array); higher = stronger binding
- study conditions: glycan notation: IUPAC condensed, linker removed
About 410 targets per protein were measured; listed, in parts, are those with the strongest signals and a random draw of the rest.
We begin with a simple list: items and their reported glycan array binding signal (z-score).

These solved cases illustrate the format of a correct answer.
{"binder": "OrysaEULS2 (Oryza sativa) (protein) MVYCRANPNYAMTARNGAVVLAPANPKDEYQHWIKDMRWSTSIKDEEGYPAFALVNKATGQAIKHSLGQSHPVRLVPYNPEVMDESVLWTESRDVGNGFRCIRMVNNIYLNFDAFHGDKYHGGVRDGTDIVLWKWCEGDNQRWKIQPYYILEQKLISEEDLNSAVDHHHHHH", "glycan array binding signal (z-score)": -0.081}
{"binder": "RobpsCRA (Robinia pseudoacacia) (protein) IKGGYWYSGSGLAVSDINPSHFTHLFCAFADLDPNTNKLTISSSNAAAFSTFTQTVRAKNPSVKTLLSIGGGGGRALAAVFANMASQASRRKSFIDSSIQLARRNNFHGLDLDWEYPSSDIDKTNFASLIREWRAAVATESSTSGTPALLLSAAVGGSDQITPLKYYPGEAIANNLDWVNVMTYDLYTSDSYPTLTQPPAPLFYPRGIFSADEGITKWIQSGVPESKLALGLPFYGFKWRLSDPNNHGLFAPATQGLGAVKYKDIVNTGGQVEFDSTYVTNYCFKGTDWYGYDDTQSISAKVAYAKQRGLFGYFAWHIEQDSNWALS", "glycan array binding signal (z-score)": -0.684}
{"binder": "Langerin K313I (Homo sapiens), Q9UJ71 (protein) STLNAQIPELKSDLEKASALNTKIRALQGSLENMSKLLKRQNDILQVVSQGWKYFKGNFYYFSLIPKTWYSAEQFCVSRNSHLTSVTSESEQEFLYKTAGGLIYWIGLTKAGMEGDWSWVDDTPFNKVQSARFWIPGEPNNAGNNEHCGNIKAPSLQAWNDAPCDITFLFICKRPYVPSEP", "glycan array binding signal (z-score)": -0.164}
{"binder": "KISKRILTGKK [NK11 (Sus scrofa)]", "glycan array binding signal (z-score)": -0.23}
{"binder": "CAA (Caragana arborescens) (protein) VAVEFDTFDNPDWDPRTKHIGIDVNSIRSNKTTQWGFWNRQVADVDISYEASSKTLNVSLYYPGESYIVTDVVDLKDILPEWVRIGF", "glycan array binding signal (z-score)": 3.82}
{"binder": "DrGRIFIN (Danio rerio), Q6DGJ1 (protein) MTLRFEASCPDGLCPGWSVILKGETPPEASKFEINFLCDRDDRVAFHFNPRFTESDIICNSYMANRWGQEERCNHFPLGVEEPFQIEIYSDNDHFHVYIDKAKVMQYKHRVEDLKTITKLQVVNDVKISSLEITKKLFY", "glycan array binding signal (z-score)": 10.6}

Consider the binder Intelectin-1a (Mus musculus) (protein) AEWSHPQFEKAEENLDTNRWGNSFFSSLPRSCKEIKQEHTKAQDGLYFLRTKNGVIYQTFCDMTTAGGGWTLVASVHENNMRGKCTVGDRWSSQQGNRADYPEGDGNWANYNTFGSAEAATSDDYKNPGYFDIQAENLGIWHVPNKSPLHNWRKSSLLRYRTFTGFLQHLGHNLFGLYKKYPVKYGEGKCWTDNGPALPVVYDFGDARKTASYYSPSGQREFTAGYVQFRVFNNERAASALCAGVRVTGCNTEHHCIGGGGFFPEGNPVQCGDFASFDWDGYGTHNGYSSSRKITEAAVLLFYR and give its measured glycan array binding signal (z-score). 0.954
